targetDesc: Phosphotyrosine-protein phosphatase PTPB (Mycobacterium tuberculosis)
assayName: Inhibition of Mycobacterium tuberculosis N-terminal His6-tagged PTPB at 20 uM using pNPP as substrate
Active and inactive are the calls of the source. No cut-off for these calls is given here.
reportedProperty: inhibition

In the examples that follow, each entry is paired with its recorded inhibition.
compound: O=C1Nc2ccc(S(=O)(=O)N(CCO)CCO)c3cccc1c23
targetDesc: Phosphotyrosine-protein phosphatase PTPB (Mycobacterium tuberculosis)
valueReported: inactive
//
compound: CC(NC(=O)C(=O)N1CCCCC1)C(c1cccs1)N1CCN(C)CC1 (stereo not drawn)
targetDesc: Phosphotyrosine-protein phosphatase PTPB (Mycobacterium tuberculosis)
valueReported: inactive
//
compound: CCN1CCN(C(c2cccs2)C(C)NC(=O)C(=O)NCCc2c[nH]c3ccccc23)CC1 (stereo not drawn)
targetDesc: Phosphotyrosine-protein phosphatase PTPB (Mycobacterium tuberculosis)
valueReported: inactive
//
compound: CC(NS(=O)(=O)c1ccc2c3c(cccc13)C(=O)N2)C1C2CC3CC(C2)CC1C3 (stereo not drawn)
targetDesc: Phosphotyrosine-protein phosphatase PTPB (Mycobacterium tuberculosis)
valueReported: inactive

So the reported inhibition for CNS(=O)(=O)c1ccc2c3c(cccc13)C(=O)N2 , on Phosphotyrosine-protein phosphatase PTPB (Mycobacterium tuberculosis), turned out to be inactive

So the reported inhibition for O=C1Nc2ccc(S(=O)(=O)NCc3ccccc3)c3cccc1c23 , on Phosphotyrosine-protein phosphatase PTPB (Mycobacterium tuberculosis), turned out to be inactive

So the reported inhibition for O=C1Nc2ccc(S(=O)(=O)N3CCOCC3)c3cccc1c23 , on Phosphotyrosine-protein phosphatase PTPB (Mycobacterium tuberculosis), turned out to be inactive

So the reported inhibition for CC(NC(=O)C(=O)N1CCCCC1)C(c1cccs1)N1CCN(c2ccc(F)cc2)CC1 (stereo not drawn) , on Phosphotyrosine-protein phosphatase PTPB (Mycobacterium tuberculosis), turned out to be inactive

So the reported inhibition for CC(NC(=O)C(=O)NCc1ccco1)C(c1cccs1)N1CCN(C)CC1 (stereo not drawn) , on Phosphotyrosine-protein phosphatase PTPB (Mycobacterium tuberculosis), turned out to be inactive
